Listed here are molecules together with their documented growth.
- System: COLO 205 colon
- Protocol Text: NCI-60 one-dose screen, 48 h (100 = growth as untreated, 0 = no growth, -100 = all killed)
- Experimental Conditions: 10 µM unless noted
The panel holds about 83,000 compounds, 20% with a hit somewhere; the sample as a whole holds those more often.
Field: numeric (%). Do not append units.

# Molecule, Tested Target, growth, %
measured = [
    ("CC(C)C(C(=O)NCCN1CCOCC1)N1C(=O)/C(=C/c2ccc(Br)cc2)SC1=S (centres undefined)", "COLO 205 colon", 111),
]

Qu. Recorded growth of COc1cc(C2C3=C(COC3=O)Nc3cc4c(cc32)CCC4)cc2c1OCO2 (centres undefined) , please.
Ans. -63.1

Qu. Recorded growth of COc1ccc(-c2c(N)n[nH]c2-c2cc(OC)c(OC)c(OC)c2)cc1 , please.
Ans. 4.54

Qu. Recorded growth of CN(C)CCN1C(=O)c2ccc3c4c(ccc(c24)C1=O)C(=O)N(CCN=C=S)C3=O , please.
Ans. -87.9

* * *

- Tested on: RXF 393 renal
- Protocol Text: NCI-60 one-dose screen, 48 h (100 = growth as untreated, 0 = no growth, -100 = all killed)
- Experimental Conditions: 10 µM unless noted
- Experimental: Cells are grown in 96 well plates and exposed to the test compound for 48 hours. Compounds are tested at a single concentration, which is 10^-5 M for most compounds. The reported endpoint is percent growth (GI% or GIPRCNT), where numbers from 0 - 100% represent growth inhibition, and numbers from -100% - 0 represent cell death. For example, a value of 40 represents 60% growth inhibition. A value of 0 means no net growth occurred over the course of the experiment. […]
Compounds without any hit were thinned out: in the full panel of roughly 83,000, 20% have a hit.
Endpoint: growth (%)
Field: numeric (%). Do not append units.

# Molecule, Endpoint, Unit String, Experimental Result
measured = [
    ("c1ccc(Nc2nc(Nc3ccccc3)nc(Nc3ccccc3)n2)cc1", "growth", "%", 84.3),
    ("O=C(Nc1ccc(Cl)c(Cl)c1)NS(=O)(=O)c1cnccc1Oc1ccc(F)cc1", "growth", "%", 38),
    ("COC(OC)c1ccccc1", "growth", "%", 101),
]

Qu. Recorded growth of CC(C)(C)n1cc(-c2ccnc(NCCCNS(=O)(=O)c3ccc(Br)cc3)c2)c(-c2cccc(O)c2)n1 , please.
Ans. 20.8

* * *

- Tested on: SK-MEL-28 melanoma
- Protocol Text: NCI-60 one-dose screen, 48 h
- Experimental Conditions: 10 µM unless noted
- Procedure: Growth inhibition of the SK-MEL-28 human tumor cell line is measured as a screen for anti-cancer activity. Cells are grown in 96 well plates and exposed to the test compound for 48 hours. Compounds are tested at a single concentration, which is 10^-5 M for most compounds. The reported endpoint is percent growth (GI% or GIPRCNT), where numbers from 0 - 100% represent growth inhibition, and numbers from -100% - 0 represent cell death. For example, a value of 40 represents 60% growth inhibition. […]
About 83,000 compounds went through this panel and 20% of them were active in at least one assay; those are over-represented in the sample as a whole. Active and inactive are the calls of the source. Rule for the calls: active = growth percent below 10; inactive = the rest.
Outcome field: choose from Y for active, N for inactive

Recorded results for 2 molecules are shown here.
# Molecule, Discrete Label
measured = [
    ("O=C([O][Sn]([O]C(=O)c1ccccn1)([c]1ccccc1)[c]1ccccc1)c1ccccn1", "N"),
    ("O=S(=O)(NCCNc1nccc(-c2c(-c3ccc(F)cc3)nc3sccn23)n1)c1ccc(F)cc1", "N"),
]

Qu. Hello, I am checking results. What call was entered for COc1ccc(/C=C2\N=C(c3ccccc3)N(C(=O)c3ccccc3O)NC2=O)cc1 ?
Ans. N

Qu. Hello, I am checking results. What call was entered for CO[C@H]1NC(=O)N(S(=O)(=O)c2ccc(Cl)cc2)[C@@H]1OC ?
Ans. N

Qu. Hello, I am checking results. What call was entered for Cc1cc(C(C)(C)C)ccc1S ?
Ans. N

Qu. Hello, I am checking results. What call was entered for C/C=C/C1=CN2C(=O)c3cc(OC4OC(C)C(NC)C(C)(O)C4O)c(C)cc3N=C[C@@H]2C1 (stereo not given in full) ?
Ans. Y

Qu. Hello, I am checking results. What call was entered for CCN(CC)CCCC(C)Nc1c2ccc(Cl)cc2nc2cc(OC)c(OC)cc12 (stereo not given) ?
Ans. Y

Qu. Hello, I am checking results. What call was entered for Cc1ccc(S(=O)(=O)Nc2c(Br)cc(Br)cc2C(N)=O)cc1 ?
Ans. N

* * *

- Tested on: SF-295 CNS
- Protocol Text: NCI-60 one-dose screen, 48 h (100 = growth as untreated, 0 = no growth, -100 = all killed)
- Experimental Conditions: 10 µM unless noted
The panel holds about 83,000 compounds, 20% with a hit somewhere; the sample as a whole holds those more often.
Endpoint: growth (%)
Field: numeric (%). Do not append units.

Illustrative cases are given below, each with its answer.
# Compound, growth / %
measured = [
    ("O=c1[nH]c(NCc2ccccc2)nc2nc(Nc3ccc(NC(=S)Nc4ccccc4)cc3)nc(-c3ccc(O)cc3O)c12", 147),
    ("CC(C)(C)c1[nH]nc2c1C(c1cc3ccccc3[nH]c1=O)Nc1cc(C(=O)Nc3ccc(Cl)cc3)ccc1N2 (stereo not given)", 38.5),
    ("O=C1c2ccccc2-c2ccccc2C1(Cl)Cl", -91),
]

Qu. Recorded growth of COc1ccccc1CNCCCN1C(=O)c2ccc3c4c(ccc(c24)C1=O)C(=O)N(CCCNCCCCNCCCN)C3=O , please.
Ans. 1.52

Qu. Recorded growth of COc1cc(-c2nc(N=Nc3c(O)[nH]c4ccc(Br)cc34)[nH]c(=O)c2C#N)cc(OC)c1OC , please.
Ans. 91.1

Qu. Recorded growth of O=C(Nc1ccc(Cl)c(Cl)c1)NS(=O)(=O)c1cnccc1Oc1ccc(F)cc1 , please.
Ans. 13.7

Qu. Recorded growth of C=C1c2nc3ccccc3n2C=C(c2ccc(Cl)cc2)N1Cc1ccccc1 , please.
Ans. 89.8

Qu. Recorded growth of FC(F)(F)c1ccccc1-c1cn2c(ccc3ccccc32)n1 , please.
Ans. 62.1

Qu. Recorded growth of Cc1ccc2ccccc2c1C[n+]1ccccc1 , please.
Ans. 101

Qu. Recorded growth of COc1cccc(/C=C2\Oc3cc(OCCCN4CCCC4)ccc3C2=O)c1OC , please.
Ans. 97.4

* * *

Listed here are compounds together with their documented growth.
- System: OVCAR-3 ovarian
- Protocol Text: NCI-60 one-dose screen, 48 h (100 = growth as untreated, 0 = no growth, -100 = all killed)
- Experimental Conditions: 10 µM unless noted
Compounds without any hit were thinned out: in the full panel of roughly 83,000, 20% have a hit.
Field: numeric (%). Do not append units.

# Compound, growth (%)
data = [
    ("COc1ccc(C2=C(c3cc(OC)c(OC)c(OC)c3)C(=O)CC2)cc1", -65.4),
]

Qu. Record CCN(CC)c1ccc2[nH]c3c(C(N)=O)cc(=O)c(=O)c=3oc2c1 : what is its growth with OVCAR-3 ovarian?
Ans. -35.9

Qu. Record CC(C)C(C(=O)NCCN1CCOCC1)N1C(=O)/C(=C/c2ccc(Br)cc2)SC1=S (stereo not given) : what is its growth with OVCAR-3 ovarian?
Ans. 104

Qu. Record COc1ccc(-c2ccc(-c3ccc(-c4ccc(C(=N)N)cc4)s3)s2)cc1OC : what is its growth with OVCAR-3 ovarian?
Ans. -64.9

Qu. Record CC(C)(C)n1cc(-c2ccnc(NCCCNS(=O)(=O)c3ccc(Br)cc3)c2)c(-c2cccc(O)c2)n1 : what is its growth with OVCAR-3 ovarian?
Ans. 42.8

* * *

- System: NCI-H322M lung
- Protocol Text: NCI-60 one-dose screen, 48 h (100 = growth as untreated, 0 = no growth, -100 = all killed)
- Experimental Conditions: 10 µM unless noted
Compounds without any hit were thinned out: in the full panel of roughly 83,000, 20% have a hit.
Endpoint: growth (%)
Field: numeric (%). Do not append units.

Illustrative cases are given below, each with its answer.
# Smiles String, growth (%)
records = [
    ("c1ccc(Nc2nc(Nc3ccccc3)nc(Nc3ccccc3)n2)cc1", 57.3),
    ("C=C[C@@H]1C[C@@H]2Cc3ccccc3N1O2", 112),
    ("CCCCCCN1CSC(=S)N(CCCCCC)C1", 115),
]

Qu. Recorded growth of COc1ccc(-c2nc(/C=C3/C(=O)Nc4ccc(F)cc43)c3ccccn23)cc1 , please.
Ans. 126

Qu. Recorded growth of Cc1ccc(S(=O)(=O)n2cc(C(=O)C(=O)Nc3ccncc3)c3ccccc32)cc1 , please.
Ans. 94.7

Qu. Recorded growth of COc1ccc(Nc2ncccc2C(=O)NCc2cn(Cc3cccc(Oc4ccccc4)c3)nn2)cc1 , please.
Ans. 46.1

Qu. Recorded growth of Cn1ccc(=O)c(S(N)(=O)=O)c1 , please.
Ans. 108

Qu. Recorded growth of COc1ccc(-c2ccc(C)n2-c2ccc(-c3nc4cc(Cl)ccc4s3)cc2)cc1 , please.
Ans. 103

Qu. Recorded growth of COc1ccc(C(=O)c2cc(OC)c3c(c2)OCO3)cc1O , please.
Ans. 51.4
